meta.source: PubChem BioAssay (NCI)

- Test system: IGROV1 ovarian
- test_name: NCI-60 one-dose screen, 48 h
- condition_summary: 10 µM
About 83,000 compounds went through this panel and 20% of them were active in at least one assay; those are over-represented in the sample as a whole. Activity calls are given as the source filed them. Rule for the calls: active = growth percent below 10; inactive = the rest.
Returns: one label drawn from 1.0 for active, 0.0 for inactive

Look over these answered cases.
{"compound": "Nc1c(C(=O)Nc2ccccc2)sc2nc3c(cc12)CCCC3", "class_name": 0.0}
{"compound": "Fc1cc(C(F)(F)F)ccc1-c1cncnc1NC1CCCCCC1", "class_name": 0.0}
{"compound": "O=C(Nc1ccc(CN2CCc3nc4cc(O)c(O)cc4cc32)cc1)c1ccc(Cl)c(Cl)c1", "class_name": 0.0}
{"compound": "CC/C(=C(/c1ccc(OCCN(C)C)cc1)c1ccc(OC(=O)CCC(=O)c2c(C)[nH]c(/C=C3\\N=C(c4ccc[nH]4)C=C3OC)c2C)cc1)c1ccccc1", "class_name": 0.0}
{"compound": "CN(C)c1ccc(/C=C/C=N/NC(=O)c2cc(O)c(O)c(O)c2)cc1", "class_name": 0.0}
{"compound": "Cn1c([N+](=O)[O-])cnc1/C=C1\\Oc2cc(Cl)ccc2C1=O", "class_name": 1.0}

Consider the record given below.
How was "O=C(Nc1cccc(Cl)c1)Nc1nccs1" classified in this test?
0.0
